- protocol.details: in vitro
- condition.context: human, hela cells, % viability
property.measured: viability at 28.5 h, 10 µM (%)

In [3]: df
Out[3]:
                                   compound  obs_value
0  Cc1n[nH]c(C)c1C1COCCN1C(=O)c1cccc(F)c1 (centres unmarked)       86.9
1  CC(NC(=O)c1ccccc1)C(=O)OCn1nnc2ccccc2c1=O (centres unmarked)         92
2         CN(C)c1ccc(-n2ncc(-c3ccsc3)n2)cc1       86.8
3  CN(C)CCNc1ccc(-c2nnc(O)c3ccccc23)cc1[N+](=O)[O-]        111
4  COc1cccc(CC(=O)N2[C@H](Cc3ccccc3)C[C@@H]3NCCCCC[C@H]32)c1        105
